# protocolText: NCI Yeast Anticancer Drug Screen. Data for the mec2-1 strain (AID 157)
# measurementContext: S. cerevisiae mec2-1 strain, at 3.7 µM
Compounds without any hit were thinned out: in the full panel of roughly 79,000, 15% have a hit. Activity calls are given as the source filed them. No stated cut-off is given here; in the data, active means growth inhibition above about 70%; inactive means the rest.
The reply should name one outcome from active, inactive

Hello, I am checking results. What call was entered for `Cc1c2cc[n+](CCN3CCCCC3)cc2c(C)c2c1[nH]c1ccc(O)cc12` ?
inactive

Hello, I am checking results. What call was entered for `CCOC(=O)CNC(=O)c1[nH]cnc1/N=N/N(C)C` ?
inactive

Hello, I am checking results. What call was entered for `NNC(=S)Nc1cccc2ccccc12` ?
inactive

Hello, I am checking results. What call was entered for `C=Cc1cnc([N+](=O)[O-])n1C` ?
inactive

Hello, I am checking results. What call was entered for `CN(N=O)C(=O)N[C@@H](C=O)[C@@H](O)[C@H](O)[C@H](O)CO` ?
inactive

Hello, I am checking results. What call was entered for `COC(=O)c1cccc(C)c1C(=O)c1c(C)cc(C)cc1C` ?
inactive

Hello, I am checking results. What call was entered for `O=C1c2c(O)cccc2-c2nn(CCNCCO)c3ccc(NCCNCCO)c1c23` ?
inactive

Hello, I am checking results. What call was entered for `S=c1cn[nH]c2ccc(Br)cc12` ?
inactive

Hello, I am checking results. What call was entered for `CNc1nc(C)nc2c1cnn2-c1ccc([N+](=O)[O-])cc1` ?
inactive

Hello, I am checking results. What call was entered for `O=Cc1coc2ccccc2c1=O` ?
inactive

Hello, I am checking results. What call was entered for CC(=O)C1=C(O)C2(C)c3c(O)c(C)c(O)c(C(C)=O)c3OC2(Sc2ccccc2)CC1=O (stereo not given) ?
inactive

Hello, I am checking results. What call was entered for `N#CC(=S)Nc1cccc(Cl)c1` ?
inactive

Hello, I am checking results. What call was entered for `COc1cc(N(C)C)ccc1/C=C\c1ccnc2ccccc12` ?
inactive

Hello, I am checking results. What call was entered for `Cc1ccccc1NC(=O)Cc1csc(N/N=C2\NC(=O)/C(=C/c3cccc([N+](=O)[O-])c3)S2)n1` ?
inactive

Hello, I am checking results. What call was entered for OC(CN1CCCCC1)c1cc(Cl)c(Cl)c(Cl)c1 (stereo not given) ?
inactive

Hello, I am checking results. What call was entered for `C(=N/NC1=NCCN1)/c1c2ccccc2c(/C=N\NC2=NCCN2)c2ccccc12` ?
inactive

Hello, I am checking results. What call was entered for `Cc1ccc2occ/c(=N\Nc3ccccc3)c2c1` ?
inactive

Hello, I am checking results. What call was entered for CC(=O)Oc1ccc(N2C(=O)C3c4[nH]c5ccccc5c4C4CCC(C(C)(C)C)CC4C3C2=O)cc1 (stereo not given) ?
active

Hello, I am checking results. What call was entered for `CCCCCC(=O)c1ccc(O)cc1O` ?
inactive

Hello, I am checking results. What call was entered for `Cc1ccc(Nc2c3c(c(C#N)c4nc5ccccc5n24)CCCC3)cc1` ?
inactive

---

# protocolText: NCI Yeast Anticancer Drug Screen. Data for the rad50 strain (AID 155);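 further: 0% = growth of vehicle-only cultures of the same strain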
# measurementContext: S. cerevisiae rad50 strain growth inhibition; at 3.7 µM; hits give high values
About 79,000 compounds went through this panel and 15% of them were active in at least one assay; those are over-represented in the sample as a whole. Active and inactive are the calls of the source. Cut-off read from the data, not from the text of the source: active = growth inhibition above about 70%; inactive = the rest.
Kindly state growth inhibition for each of the entries shown.

For `[N-]=[N+]=NC(c1ccccc1)(c1ccccc1)c1ccccc1` , what is its reported growth inhibition?
22% (inactive)

For CC1C(C#N)(C#N)C(C#N)=C(N)C1(Cl)[N+](=O)[O-] (configuration not stated) , what is its reported growth inhibition?
26% (inactive)

For `CCOC(=O)[C@]1(Br)CC[C@@]1(Br)C(=O)OCC` , what is its reported growth inhibition?
7% (inactive)

For `COc1ccc(N)c2c1C(=O)c1ccccc1C2=O` , what is its reported growth inhibition?
8% (inactive)

For `CCCCCC#CCOC(=O)C(=[N+]=[N-])P(=O)(c1ccccc1)c1ccccc1` , what is its reported growth inhibition?
21% (inactive)

For `S=c1nc(Cl)cc2[nH]c(Cl)cn12` , what is its reported growth inhibition?
9% (inactive)

For `COc1cc(N)ccc1Nc1c2ccccc2nc2ccccc12` , what is its reported growth inhibition?
32% (inactive)

For `Clc1c(Cl)c(Cl)c2n[nH]nc2c1Cl` , what is its reported growth inhibition?
-21% (inactive)

For `Cn1ncc2cc3c(Nc4ccc(Cl)cc4)cccc3nc21` , what is its reported growth inhibition?
5% (inactive)

For `CCN(CC)CCNC(=O)c1nn(-c2ccc(Cl)cc2)c2c1CCc1cc(OC)ccc1-2` , what is its reported growth inhibition?
5% (inactive)

For `Cn1c2nc3ccccc3c-2nc2ccccc21` , what is its reported growth inhibition?
81% (active)

For O=C1NC(c2c(Cl)cccc2Cl)Nc2ccccc21 (configuration not stated) , what is its reported growth inhibition?
4% (inactive)

For O=S1(=O)c2ccccc2N=C(c2ccccc2Cl)CC1c1ccc(F)cc1 (configuration not stated) , what is its reported growth inhibition?
-34% (inactive)

For `N#CC(=S)Nc1cccc(Cl)c1` , what is its reported growth inhibition?
8% (inactive)

For `COc1cc(CNc2ccc(C(C)C)cc2)cc(OC)c1OC` , what is its reported growth inhibition?
0% (inactive)

For `CN[C@@H]1C[C@H]2O[C@@](C)([C@@H]1OC)n1c3ccccc3c3c4c(c5c6ccccc6n2c5c31)C(=O)N[C@@H]4O` , what is its reported growth inhibition?
-41% (inactive)

For Cc1cc(C)c(N2C(=O)CC(Sc3ccccc3N)C2=O)c(C)c1 (configuration not stated) , what is its reported growth inhibition?
-30% (inactive)
